# MEASUREMENT DESCRIPTION: The compound was tested for inhibition of the rate of 1 uM UDP-[3H]-GlcNAc import into the lumen of the Golgi membranes.
# Type: functional, Oryctolagus cuniculus
pIC50: −log10 of the molar value.
MEASURED ATTRIBUTE: pIC50

* N[C@H]1[C@@H](OP(=O)(O)OP(=O)(O)OC[C@H]2O[C@@H](n3ccc(=O)[nH]c3=O)[C@H](O)[C@@H]2O)O[C@H](CO)[C@H](O)[C@@H]1O [URACIL DIPHOSPHATE GALACTOSAMINE] | 4.40
* CCCc1cn([C@H]2C[C@H](O)[C@@H](COP(=O)(O)O)O2)c(=O)[nH]c1=O | 4.00
* CC(=O)N[C@@H]1[C@H](OP(=O)(O)OP(=O)(O)OC[C@H]2O[C@@H](n3ccc(=O)[nH]c3=O)[C@H](O)[C@@H]2O)O[C@@H](CO)[C@H](O)[C@H]1O | 5.15
* O=c1[nH]c(=O)n([C@H]2C[C@H](O)[C@@H](COP(=O)(O)O)O2)cc1/C=C/Br | 5.30
* N[C@H]1[C@@H](OP(=O)(O)OP(=O)(O)OC[C@H]2O[C@@H](n3ccc(=O)[nH]c3=O)[C@H](O)[C@@H]2O)O[C@H](CO)[C@@H](O)[C@@H]1O [URACIL DIPHOSPHATE GLUCOSAMINE] | 5.15

* * *

# MEASUREMENT DESCRIPTION: In vitro inhibition of UDP-[3H]-GlcNAc import into the lumen of the Golgi membranes from rabbit liver homogenate.
# Type: functional, tissue-based, Oryctolagus cuniculus
MEASURED ATTRIBUTE: log10 IC50 (log10 of the value in µM)

- O=c1[nH]c(=O)n(C2CC(F)C(COP(=O)(O)O)O2)cc1Cl (stereo not drawn): 0.95
- O=c1ccn(C2O[C@H](COP(=O)(O)O)[C@@H](O)[C@@H]2O)c(=O)[nH]1 (stereo partly drawn): 0.90
- Cc1cn([C@H]2C[C@H](N=[N+]=[N-])[C@@H](COP(=O)(O)O)O2)c(=O)[nH]c1=O (stereo in doubt; form 1) [AZIDOTHYMIDINE MONOPHOSPHATE]: 0.85
- Cc1cn(C2CC(F)C(COP(=O)(O)O)O2)c(=O)[nH]c1=O (stereo not drawn): 0.18
- O=c1ccn([C@H]2C[C@H](O)[C@@H](COP(=O)(O)O)O2)c(=O)[nH]1 [DEOXYURIDINE MONOPHOSPHATE]: 0.90
- O=c1[nH]c(=O)n(C2CSC(COP(=O)(O)O)O2)cc1F (stereo not drawn): 1.26
- CCc1cn(C2O[C@H](COP(=O)(O)O)[C@@H](O)[C@@H]2O)c(=O)[nH]c1=O (stereo partly drawn): 0.54
- O=c1ccn([C@@H]2O[C@H](COP(=O)(O)O)[C@@H](O)[C@H]2F)c(=O)[nH]1: 1.04
- Nc1ccn([C@@H]2O[C@H](COP(=O)(O)O)[C@@H](O)[C@H]2O)c(=O)n1 (stereo in doubt; form 2): 1.00
- Cc1cn([C@H]2C[C@H](N=[N+]=[N-])[C@@H](COP(=O)(O)O)O2)c(=O)[nH]c1=O (stereo in doubt; form 2) [AZIDOTHYMIDINE MONOPHOSPHATE]: 1.93
- Cc1cn([C@H]2C[C@H](O)[C@@H](COP(=O)(O)O)O2)c(=O)[nH]c1=O [THYMIDINE MONOPHOSPHATE]: 1.00
- Cc1cn([C@H]2CC[C@@H](COP(=O)(O)O)O2)c(=O)[nH]c1=O: 0.95

* * *

# MEASUREMENT DESCRIPTION: In vitro inhibition of UDP-[3H]-GlcNAc import into the lumen of the Golgi membranes from rabbit liver homogenate.
# Assay type: functional, tissue-based, Oryctolagus cuniculus
pIC50: −log10 of the molar value.
pIC50 reference
MEASURED ATTRIBUTE: pIC50

* CC(=O)N[C@H]1[C@H]([C@H](O)[C@H](O)CO)O[C@](OP(=O)(O)OC[C@H]2O[C@@H](n3ccc(N)nc3=O)[C@H](O)[C@@H]2O)(C(=O)O)C[C@@H]1O | < 4.30
* CC#Cc1cn([C@H]2C[C@H](O)[C@@H](COP(=O)(O)O)O2)c(=O)[nH]c1=O | < 4.40
* Cc1cn([C@H]2CC[C@H](COP(=O)(O)O)O2)c(=O)[nH]c1=O | < 3.70
* Nc1ccn([C@@H]2O[C@H](COP(=O)(O)O)[C@@H](O)[C@H]2O)c(=O)n1 (stereo in doubt; form 1) | < 4.00
* Cc1cn([C@@H]2O[C@H](COP(=O)(O)O)[C@@H](O)[C@@H]2F)c(=O)[nH]c1=O | < 3.70
* Cc1cn(COCCOP(=O)(O)O)c(=O)[nH]c1=O | < 4.00

Values were extracted from ChEMBL document CHEMBL1129244.
